Recorded hSCTR pEC50 (purified peptide) values for a group of binders are listed next.
# tested-on: human secretin receptor (hSCTR) (human, UniProt P47872 23-440)
# Sequence (P47872 23-440): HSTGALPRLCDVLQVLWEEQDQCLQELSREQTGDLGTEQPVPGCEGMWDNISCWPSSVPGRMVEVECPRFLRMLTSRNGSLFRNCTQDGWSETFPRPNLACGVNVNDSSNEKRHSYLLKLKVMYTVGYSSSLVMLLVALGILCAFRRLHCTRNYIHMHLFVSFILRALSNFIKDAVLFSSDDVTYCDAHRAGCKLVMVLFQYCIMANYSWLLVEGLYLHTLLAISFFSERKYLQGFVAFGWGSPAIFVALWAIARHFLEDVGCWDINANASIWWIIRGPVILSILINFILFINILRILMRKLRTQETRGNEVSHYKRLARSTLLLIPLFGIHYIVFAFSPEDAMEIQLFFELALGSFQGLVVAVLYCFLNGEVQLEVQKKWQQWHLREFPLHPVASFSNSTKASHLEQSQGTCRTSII
# experiment-notes: cell-based or functional assay
Numbered stars: 1 amine (or outer) side, 2 acyl side, 3 side chain; on linkers, the order of the positions; unused ones are H or OH. Square brackets hold non-standard residues; d marks the D form. Side chains are listed from the residue outwards. Ends that are not written are not given here. * marks the point of attachment. C20 diacid = O=C(O)CCCCCCCCCCCCCCCCCCC(=O)*; γGlu = O=C(O)[C@H](CCC(=O)[*:2])N[*:1]; AEEA = NCCOCCOCC(=O)O; Aib = CC(C)(N)C(=O)O

What does the record list as hSCTR pEC50 (purified peptide) for H[Aib]EGTFTSDVSYLK([AEEA-AEEA-γGlu-C20 diacid])EEA[Aib]LQRFLEHLV-NH2 (also: table footnote: C20DA or C18DA) [SEQ ID NO: 203] ?
6.7 -log M
